test system: MCF-7; assay: NCI sulforhodamine B growth inhibition, breast cancer cells; assay type: cell-based, human; conditions: MCF-7 breast, 48 h
Measure Name: Growth inhibition of human cancer cell lines GI50 (ng/mL)
# number only, unit ng/mL dropped from output

Determine from records and report Growth inhibition of human cancer cell lines GI50 for CC(C)C[C@H]1OC(=O)[C@H](C(C)C)NC(=O)[C@H](C)OC(=O)[C@@H](C(C)C)NC(=O)[C@@H](CC(C)C)OC(=O)[C@H](C(C)C)NC(=O)[C@H](C)OC(=O)[C@@H](C(C)C)NC(=O)[C@@H](CC(C)C)OC(=O)[C@H](C(C)C)NC(=O)[C@H](C)OC(=O)[C@@H](C(C)C)NC1=O [Silstatin 1 (7a), Cyclo-[Val-D-Hica-D-Val-Lac]3]
0.11

Origin of measurements: patent US11174291B2
